Values were extracted from patent US20170349638A1.

- assay target: HDM2 (Homo sapiens)
- Sequence (Q00987 whole entry, looked up): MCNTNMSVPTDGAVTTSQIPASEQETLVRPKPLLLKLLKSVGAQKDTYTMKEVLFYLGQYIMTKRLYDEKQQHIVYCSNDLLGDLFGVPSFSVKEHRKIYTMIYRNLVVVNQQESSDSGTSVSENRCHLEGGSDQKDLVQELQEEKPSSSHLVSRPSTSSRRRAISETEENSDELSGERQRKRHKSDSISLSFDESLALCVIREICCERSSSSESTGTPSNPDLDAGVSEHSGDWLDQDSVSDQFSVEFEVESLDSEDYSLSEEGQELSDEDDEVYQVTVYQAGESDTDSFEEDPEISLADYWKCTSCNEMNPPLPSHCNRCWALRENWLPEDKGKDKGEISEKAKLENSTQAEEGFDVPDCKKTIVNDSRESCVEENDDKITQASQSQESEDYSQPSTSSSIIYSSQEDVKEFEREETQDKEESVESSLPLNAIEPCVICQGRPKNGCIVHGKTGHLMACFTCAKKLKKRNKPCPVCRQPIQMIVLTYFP
Where a SMILES comes first, the peptide text is derived from it. Bridges are numbered along the chain shown (N, C = ends). [ ]: non-standard residue; d: D form. R8 = C=CCCCCCC[C@@](C)(N)C(=O)O; S5 = C=CCCC[C@](C)(N)C(=O)O
property name: pIC50
Answer as the number alone; pIC50 is minus log10 of concentration in mol/L.

Request: Which pIC50 reading was recorded for the molecule CC(=O)N[C@@H](CC(C)C)C(=O)N[C@H](C(=O)N[C@@H](Cc1ccccc1)C(=O)N[C@]1(C)CCCCCCC=CCCC[C@@](C)(C(=O)N[C@@H](CO)C(N)=O)NC(=O)[C@H](CC(C)C)NC(=O)[C@H](C)NC(=O)[C@H](C)NC(=O)[C@H](Cc2c[nH]c3ccccc23)NC(=O)[C@H](Cc2ccc(O)cc2)NC(=O)[C@H](C)NC1=O)[C@@H](C)O [SP-351, Ac- L T F $r8 A Y W A A L $ S -NH2] (Ac-LTF[R8]AYWAAL[S5]S-NH2; staple 4-11 (inferred)) ?
Response: 7.33

* * *

Exercise: for every item that follows, state its recorded pIC50.
Where a SMILES comes first, the peptide text is derived from it. Bridges are numbered along the chain shown (N, C = ends). [ ]: non-standard residue; d: D form. R8 = C=CCCCCCC[C@@](C)(N)C(=O)O; S5 = C=CCCC[C@](C)(N)C(=O)O
Answer as the number alone; pIC50 is minus log10 of concentration in mol/L.

Request: Lookup: pIC50 / HDMx (Homo sapiens) / CC(=O)N[C@@H](CC(C)C)C(=O)N[C@H](C(=O)N[C@@H](Cc1ccccc1)C(=O)N[C@]1(C)CCCCCCC=CCCC[C@@](C)(C(=O)N[C@@H](CO)C(N)=O)NC(=O)[C@H](CC(C)C)NC(=O)[C@H](CCC(N)=O)NC(=O)[C@H](C)NC(=O)[C@H](Cc2c[nH]c3ccccc23)NC(=O)[C@H](Cc2ccc(O)cc2)NC(=O)[C@H](C(C)C)NC1=O)[C@@H](C)O [SP-266, Ac- L T F $r8 V Y W A Q L $ S -NH2] (Ac-LTF[R8]VYWAQL[S5]S-NH2; staple 4-11 (inferred))
Response: 6.52

Request: Lookup: pIC50 / HDMx (Homo sapiens) / CC(=O)N[C@@H](CC(C)C)C(=O)N[C@H](C(=O)N[C@@H](Cc1ccccc1)C(=O)N[C@]1(C)CCCCCCC=CCCC[C@@](C)(C(=O)N[C@@H](CO)C(N)=O)NC(=O)[C@H](CC(C)C)NC(=O)[C@H](C)NC(=O)[C@H](C)NC(=O)[C@H](Cc2c[nH]c3ccccc23)NC(=O)[C@H](Cc2ccc(O)cc2)NC(=O)[C@H](C)NC1=O)[C@@H](C)O [SP-351, Ac- L T F $r8 A Y W A A L $ S -NH2] (Ac-LTF[R8]AYWAAL[S5]S-NH2; staple 4-11 (inferred))
Response: 6.84

Request: Lookup: pIC50 / HDMx (Homo sapiens) / CC(=O)N[C@@H](CC(C)C)C(=O)N[C@H](C(=O)N[C@@H](Cc1ccccc1)C(=O)N[C@]1(C)CCCCCC/C=C/CCC[C@@](C)(C(=O)N[C@@H](CO)C(N)=O)NC(=O)[C@H](CC(C)C)NC(=O)[C@H](CCC(N)=O)NC(=O)[C@H](C)NC(=O)[C@H](Cc2c[nH]c3ccccc23)NC(=O)[C@H](Cc2ccc(O)cc2)NC(=O)[C@H](C)NC1=O)[C@@H](C)O [SP-190, Ac- L T F $er8 A Y W A Q L $e S -NH2] (Ac-LTF[R8]AYWAQL[S5]S-NH2; staple (E) 4-11 (inferred))
Response: 7.01
